These entries and their values trace back to patent US20210040184A1.

- assayed.system: HIV-1 DU422.1 envelope (Env) on Env.IMC.LucR virus (HIV-1 clade C)
- run.description: cell-based or functional assay
value.kind: IC50 of virus neutralization (TZM-BL, luciferase)

binder: Germ17 (antibody, V domains shown) VH: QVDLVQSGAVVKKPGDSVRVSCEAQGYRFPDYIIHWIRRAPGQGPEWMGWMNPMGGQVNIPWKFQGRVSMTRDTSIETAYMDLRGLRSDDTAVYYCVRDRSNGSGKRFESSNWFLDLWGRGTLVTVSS VL: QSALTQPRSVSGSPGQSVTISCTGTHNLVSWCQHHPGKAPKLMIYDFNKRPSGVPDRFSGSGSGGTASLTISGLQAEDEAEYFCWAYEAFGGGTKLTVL
reported.value: > 50 µg/mL
